Items are presented alongside their recorded γ at 0.1 wt %, 6 b/s.
Assay: Dynamic surface tension of aqueous solutions, maximum bubble pressure method
Assay type: physicochemical
Details: 0.1 wt % in distilled water, 6 b/s
measurement.label: γ at 0.1 wt %, 6 b/s

>>> measured("CCCCOCC(O)CNC1CCC(CC2CCC(N)CC2)CC1 (mixture of isomers)")
"50.3 dyne/cm"
>>> measured("CCCCC(CC)COCC(O)CN(CCN(CC(O)COCC(CC)CCCC)CC(O)COCC(CC)CCCC)CC(O)COCC(CC)CCCC (stereo not shown)")
"71.0 dyne/cm"
>>> measured("CCCCOCC(O)CNCCCOCCOCCOCCCN (stereo not shown)")
"56.7 dyne/cm"
>>> measured("CC(C)COCC(O)CNCCN (racemic)")
"53.8 dyne/cm"
>>> measured("CCCCOCC(O)CNCCCCCCN (racemic)")
"47.9 dyne/cm"
>>> measured("CCCCC(CC)COCC(O)CNCCN(CC(O)COCC(CC)CCCC)CC(O)COCC(CC)CCCC (stereo not shown)")
"70.5 dyne/cm"
>>> measured("CCCCOCC(O)CNC1CCC(CC2CCC(N(CC(O)COCCCC)CC(O)COCCCC)CC2)CC1 (stereo not shown)")
"69.1 dyne/cm"
>>> measured("CCCCOCC(O)CN(CCCOCCOCCOCCCN(CC(O)COCCCC)CC(O)COCCCC)CC(O)COCCCC (stereo not shown)")
"42.0 dyne/cm"
>>> measured("CCCCOCC(O)CN(CC(O)COCCCC)C1CCC(CC2CCC(N(CC(O)COCCCC)CC(O)COCCCC)CC2)CC1 (stereo not shown)")
"72.0 dyne/cm"
>>> measured("CCCCOCC(O)CNCCCCCCN(CC(O)COCCCC)CC(O)COCCCC (stereo not shown)")
"47.5 dyne/cm"
>>> measured("CCCCOCC(O)CN(CCN(CC(O)COCCCC)CC(O)COCCCC)CC(O)COCCCC (stereo not shown)")
"44.4 dyne/cm"
>>> measured("CCCCOCC(O)CNCCN(CC(O)COCCCC)CC(O)COCCCC (stereo not shown)")
"43.2 dyne/cm"
>>> measured("CCCCOCC(O)CN(CCCC(C)CN(CC(O)COCCCC)CC(O)COCCCC)CC(O)COCCCC (stereo not shown)")
"67.5 dyne/cm"
>>> measured("CCCCOCC(O)CNCCN (racemic)")
"53.4 dyne/cm"
>>> measured("CCCCOCC(O)CNCCCOCCOCCOCCCN(CC(O)COCCCC)CC(O)COCCCC (stereo not shown)")
"42.1 dyne/cm"
>>> measured("CCCCOCC(O)CN(CCCCCCN(CC(O)COCCCC)CC(O)COCCCC)CC(O)COCCCC (stereo not shown)")
"67.6 dyne/cm"
>>> measured("CC(C)COCC(O)CN(CCN(CC(O)COCC(C)C)CC(O)COCC(C)C)CC(O)COCC(C)C (stereo not shown)")
"51.4 dyne/cm"
>>> measured("CC(C)COCC(O)CNCCN(CC(O)COCC(C)C)CC(O)COCC(C)C (stereo not shown)")
"44.1 dyne/cm"
>>> measured("CCCCC(CC)COCC(O)CNCCN (mixture of isomers)")
"54.7 dyne/cm"

* * *

Assay: Dynamic surface tension of aqueous solutions, maximum bubble pressure method
Type: physicochemical
Settings: saturated solution made using 1.0 wt % in water, 6 b/s
measurement.label: γ limiting, 6 b/s

>>> measured("CCCCOCC(O)CNCCCCCCN (racemic)")
"41.1 dyne/cm"
>>> measured("CCCCOCC(O)CN(CCCC(C)CN(CC(O)COCCCC)CC(O)COCCCC)CC(O)COCCCC (stereo not drawn)")
"38.9 dyne/cm"
>>> measured("CCCCOCC(O)CNC1CCC(CC2CCC(N)CC2)CC1 (mixture of isomers)")
"46.2 dyne/cm"
>>> measured("CCCCOCC(O)CNCCCCCCN(CC(O)COCCCC)CC(O)COCCCC (stereo not drawn)")
"40.7 dyne/cm"
>>> measured("CCCCOCC(O)CNCCN (racemic)")
"38.1 dyne/cm"
>>> measured("CCCCOCC(O)CNCCCOCCOCCOCCCN (stereo not drawn)")
"42.9 dyne/cm"
>>> measured("CCCCC(CC)COCC(O)CNCCN(CC(O)COCC(CC)CCCC)CC(O)COCC(CC)CCCC (stereo not drawn)")
"47.1 dyne/cm"
>>> measured("CCCCOCC(O)CNCCN(CC(O)COCCCC)CC(O)COCCCC (stereo not drawn)")
"36.5 dyne/cm"
>>> measured("CCCCOCC(O)CNCCCOCCOCCOCCCN(CC(O)COCCCC)CC(O)COCCCC (stereo not drawn)")
"34.3 dyne/cm"
>>> measured("CCCCOCC(O)CNC1CCC(CC2CCC(N(CC(O)COCCCC)CC(O)COCCCC)CC2)CC1 (stereo not drawn)")
"63.5 dyne/cm"
>>> measured("CCCCC(CC)COCC(O)CN(CCN(CC(O)COCC(CC)CCCC)CC(O)COCC(CC)CCCC)CC(O)COCC(CC)CCCC (stereo not drawn)")
"51.0 dyne/cm"
>>> measured("CC(C)COCC(O)CN(CCN(CC(O)COCC(C)C)CC(O)COCC(C)C)CC(O)COCC(C)C (stereo not drawn)")
"40.3 dyne/cm"
>>> measured("CC(C)COCC(O)CNCCN(CC(O)COCC(C)C)CC(O)COCC(C)C (stereo not drawn)")
"35.0 dyne/cm"
>>> measured("CCCCOCC(O)CN(CCCCCCN(CC(O)COCCCC)CC(O)COCCCC)CC(O)COCCCC (stereo not drawn)")
"40.8 dyne/cm"
>>> measured("CCCCOCC(O)CN(CCN(CC(O)COCCCC)CC(O)COCCCC)CC(O)COCCCC (stereo not drawn)")
"39.2 dyne/cm"
>>> measured("CCCCOCC(O)CN(CC(O)COCCCC)C1CCC(CC2CCC(N(CC(O)COCCCC)CC(O)COCCCC)CC2)CC1 (stereo not drawn)")
"70.5 dyne/cm"
>>> measured("CCCCOCC(O)CN(CCCOCCOCCOCCCN(CC(O)COCCCC)CC(O)COCCCC)CC(O)COCCCC (stereo not drawn)")
"35.5 dyne/cm"
>>> measured("CCCCC(CC)COCC(O)CNCCN (mixture of isomers)")
"30.6 dyne/cm"
